Assay: Plasma pharmacokinetics of ALM201 in Phase I patients (validated LC-MS/MS, Phoenix WinNonlin)
Settings: human, plasma, sc, 200 mg, Tmax, median, 200 mg SC, day 3 cycle 1, n = 4; plasma LC-MS/MS
No end group written: not given here.
experimental_endpoint: Tmax (h)

| sequence_input | test_value |
| --- | --- |
| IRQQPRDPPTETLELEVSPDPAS [ALM201] | 2 |

###

Experiment: Plasma pharmacokinetics of ALM201 in Phase I patients (validated LC-MS/MS, Phoenix WinNonlin)
Conditions: human, plasma, sc, 300 mg, Cmax, Gmean (CV), 300 mg SC, day 18 cycle 2, n = 3; plasma LC-MS/MS
No end group written: not given here.
experimental_endpoint: Cmax (ng/mL)

| sequence_input | test_value |
| --- | --- |
| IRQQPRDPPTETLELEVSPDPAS [ALM201] | 2780 |
